Assignment: determine reported solubility kinetic for the given compounds.
# Experimental Conditions: buffer; pH 7.4; 200.0 µM

Fill in the blank: the reported solubility kinetic of O=C(NCCc1ccc(F)cc1)Nc1ccc([N+](=O)[O-])cc1 is ____. 4.9 µg/mL

Also need Cc1ccccc1NC(=O)COC(=O)c1cc[n+]([O-])cc1 , thanks. > 42.9 µg/mL

Next compound up: CC(=O)NC(CC(=O)O)C(=O)O (configuration not stated) > 26.3 µg/mL

Now this one: C=CCn1c(O)c(C(CC)=NCC2CCCO2)c(=O)[nH]c1=O (configuration not stated) > 46.1 µg/mL

Next compound: COc1ccc(CC(=O)OCC(=O)NCc2ccc(F)cc2)cc1 > 49.7 µg/mL

Same question for C=CCN1C(=O)C2(OCCCO2)c2cc(CCCC)ccc21 please. 4.5 µg/mL

Another compound to look at: CC(C)[C@H](NC(=O)c1ccc([N+](=O)[O-])cc1Cl)C(=O)N1CCN(C/C=C/c2ccccc2)CC1 44.3 µg/mL

Likewise for O=C(Nc1cccc(Cl)c1)c1cncn1-c1ccc(F)cc1 ? 45.4 µg/mL

Queued: COc1ccc(/C=N/NC(=O)c2ccc3nc[nH]c3c2)cc1 > 44.1 µg/mL

Would you kindly repeat that for CCOC(=O)C1CCN(C(=O)COc2cccc3ccccc23)CC1 ? 43.2 µg/mL

Could you do the same for Cc1ccc(N2C(=O)C(Cl)=C(N3CCCCCC3)C2=O)c(C)c1 , please? 4.5 µg/mL

Now try COC(=O)c1ccccc1N=Cc1c(O)[nH]c(=S)[nH]c1=O . 6.1 µg/mL

Consider next the compound Cc1ccc(NC(=S)NCC(O)c2ccccc2)c(C)c1 (configuration not stated) in the same way. 44.3 µg/mL

Here is the next compound: CC(=O)c1c(C)[nH]c(C(=O)Nc2ccc(F)c(F)c2F)c1C 1.8 µg/mL

Could you do the same for O=C1NC(=O)N(Cc2ccccc2F)C1=O , please? > 33.3 µg/mL

Same again, this time with Cc1noc2ncnc(N3CCCC3)c12 > 30.6 µg/mL

Cool, now O=C(NCc1ccncc1)NC1CCCCC1 > 35 µg/mL

Cool, now CC(C)(C)CC(=O)Nc1cc2c3c(c1)CCN3C(=O)CC2 > 43 µg/mL

Do the same for C=CCOc1cccc(/C=C\c2nc(O)c([N+](=O)[O-])c(=O)[nH]2)c1 please > 47.3 µg/mL

Also CN1C(=O)C(=O)/C(=C(/O)c2ccccc2)C1c1ccc(Br)cc1 (configuration not stated) ? > 55.8 µg/mL

Here is the next compound: COC(=O)c1cnc(N2CCOCC2)nc1C(F)(F)F 35.3 µg/mL

What would you report for O=[N+]([O-])c1c(Nc2ccc(Br)cc2)ccc2nonc12 ? < 0.2 µg/mL

And for CC1=C(c2ccccc2)C(=S)NC(C)(C)C1 ? 2.5 µg/mL

Entry COc1ccc(Br)cc1CNCCc1ccc2c(c1)OCO2 please 52.3 µg/mL

Cool, now COc1ccc2[nH]c(C(=O)Nc3cccc(C)n3)cc2c1 1.9 µg/mL

How about this compound: CNC(=O)c1cc(C(=O)c2ccc(Cl)cc2)c[nH]1 10.5 µg/mL

// query: Cc1cccc(/N=C/c2ccccn2)n1 27.5 µg/mL

Now this one: Cc1ccccc1CNS(=O)(=O)c1csc(C(N)=O)c1 > 46.6 µg/mL

What do we get for O=C(Nc1ncccn1)c1ccc(Cl)c([N+](=O)[O-])c1 ? > 41.8 µg/mL

Item: N/C(CS(=O)(=O)c1ccc(F)cc1)=N\O > 34.8 µg/mL

Next: Cn1c(C(=O)O)cc2c(=O)n3ccccc3nc21 > 36.5 µg/mL

Do the same for COC(=O)c1ccc(S(=O)(=O)N2CCCN(Cc3ccc(F)cc3)CC2)n1C please > 61.4 µg/mL

Try this compound too: COCCCNc1nc2nonc2nc1N(C)CC1CCCN1C (configuration not stated) 43.5 µg/mL

Lookup CN(C)CCSc1nc2cc(S(=O)(=O)N3CCCCC3)ccc2o1 41.7 µg/mL

Please do the same for COCCNc1c(-c2ccc(OC)cc2)nc2ccc(Cl)cn12 as well. 38.4 µg/mL

And then COc1ccccc1CNC(=O)c1ccc2c(c1)OCO2 , what is it? > 42.8 µg/mL

Please do the same for O=C(COC(=O)/C=C/c1cccc(F)c1)NC(=O)NCc1ccccc1 as well. 2.8 µg/mL
